- MEASUREMENT TARGET: Estrogen receptor beta (Homo sapiens)
- Sequence (Q92731 whole entry): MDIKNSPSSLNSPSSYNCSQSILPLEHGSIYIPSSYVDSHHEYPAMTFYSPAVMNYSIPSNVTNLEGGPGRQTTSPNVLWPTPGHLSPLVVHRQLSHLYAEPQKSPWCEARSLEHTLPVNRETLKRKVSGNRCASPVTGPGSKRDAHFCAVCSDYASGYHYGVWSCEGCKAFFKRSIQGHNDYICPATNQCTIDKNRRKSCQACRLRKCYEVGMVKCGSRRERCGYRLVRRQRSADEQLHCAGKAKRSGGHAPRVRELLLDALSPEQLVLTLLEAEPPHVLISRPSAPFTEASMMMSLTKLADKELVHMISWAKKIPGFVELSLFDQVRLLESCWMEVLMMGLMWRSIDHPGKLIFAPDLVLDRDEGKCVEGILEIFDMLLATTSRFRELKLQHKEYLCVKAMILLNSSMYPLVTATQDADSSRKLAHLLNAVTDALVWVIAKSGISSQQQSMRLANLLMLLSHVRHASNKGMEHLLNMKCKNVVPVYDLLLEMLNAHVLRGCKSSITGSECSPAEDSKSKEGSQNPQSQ
- ASSAY INFO: Agonist activity at ERbeta (unknown origin) expressed in HEK293T cells after 24 hrs by luciferase reporter gene assay relative to estradiol
- Format: cell-based
MEASURED ENDPOINT: Efficacy (%)

>  <GIVEN SMILES>
CCc1c(-c2ccc(O)cc2Cl)c(=O)oc2cc(O)ccc12

>  <Efficacy, %>
68.2

$$$$
>  <GIVEN SMILES>
O=c1oc2cc(O)ccc2cc1-c1ccc(O)cc1

>  <Efficacy, %>
138

$$$$

1. O=c1oc2cc(O)ccc2c(-c2ccc(O)cc2)c1-c1ccc(O)cc1
2. O=c1oc2cc(O)ccc2c(-c2ccc(O)c(F)c2)c1-c1ccc(O)c(F)c1
3. O=c1oc2cc(O)ccc2cc1-c1ccc(O)c(F)c1
4. Cc1c(-c2ccc(O)cc2Cl)c(=O)oc2cc(O)ccc12
5. CCc1c(-c2ccc(O)cc2F)c(=O)oc2cc(O)ccc12
Order the records, beginning with the lowest Efficacy and ending with the highest. Respond with an ordered listing of the labels, as requested.
2, 5, 4, 1, 3
(2: -11.2%, 5: -6.9%, 4: 12.9%, 1: 33.4%, 3: 66.7%)

---

- MEASUREMENT TARGET: Estrogen receptor (Homo sapiens, UniProt P03372)
- Sequence (P03372 whole entry): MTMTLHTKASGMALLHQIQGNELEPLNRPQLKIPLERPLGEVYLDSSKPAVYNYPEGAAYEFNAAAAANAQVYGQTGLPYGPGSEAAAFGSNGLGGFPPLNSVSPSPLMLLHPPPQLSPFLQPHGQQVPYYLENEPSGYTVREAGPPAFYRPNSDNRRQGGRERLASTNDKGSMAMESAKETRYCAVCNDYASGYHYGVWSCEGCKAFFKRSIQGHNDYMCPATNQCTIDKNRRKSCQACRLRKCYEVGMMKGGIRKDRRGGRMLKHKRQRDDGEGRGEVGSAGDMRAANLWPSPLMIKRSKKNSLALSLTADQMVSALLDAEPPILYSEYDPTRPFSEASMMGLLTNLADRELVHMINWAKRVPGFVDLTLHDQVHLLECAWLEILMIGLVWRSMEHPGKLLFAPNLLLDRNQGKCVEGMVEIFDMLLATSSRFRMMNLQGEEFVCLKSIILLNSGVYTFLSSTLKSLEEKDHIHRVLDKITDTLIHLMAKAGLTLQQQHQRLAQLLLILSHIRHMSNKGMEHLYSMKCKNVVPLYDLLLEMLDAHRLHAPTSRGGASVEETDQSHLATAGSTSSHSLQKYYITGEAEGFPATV
- ASSAY INFO: Antagonist activity at ERalpha (unknown origin) expressed in HEK293T cells assessed as inhibition of estradiol-induced response after 24 hrs by luciferase reporter gene assay
- Assay type: cell-based
MEASURED ENDPOINT: IC50 (nM)

>  <GIVEN SMILES>
O=c1oc2cc(O)ccc2c(-c2ccc(O)cc2)c1-c1ccc(O)cc1

>  <MEASUREMENT TARGET>
Estrogen receptor (Homo sapiens, UniProt P03372)

>  <MEASURED ENDPOINT>
IC50

>  <RESULT NUMBER>
222

$$$$

A. Cc1c(-c2ccc(O)cc2Cl)c(=O)oc2cc(O)ccc12
B. Cc1cc(O)ccc1-c1c(C)c2ccc(O)cc2oc1=O
From the items above, decide which of A and B has the lower IC50 reading. Please identify the chosen entry by its label.
B
(B: 112 nM, A: 1240 nM)

a. CCc1c(-c2ccc(O)cc2F)c(=O)oc2cc(O)ccc12
b. O=c1oc2cc(O)ccc2c(-c2ccc(O)c(F)c2)c1-c1ccc(O)c(F)c1
// max by IC50 over [ a , b ] Please identify the chosen entry by its label.
b

Hello, the source for this data is ChEMBL document CHEMBL4033683, in case you need it.
